# testedSystem: T1, CD19 (UniProt P15391 20-556, limits assumed)
# T1 sequence (looked up): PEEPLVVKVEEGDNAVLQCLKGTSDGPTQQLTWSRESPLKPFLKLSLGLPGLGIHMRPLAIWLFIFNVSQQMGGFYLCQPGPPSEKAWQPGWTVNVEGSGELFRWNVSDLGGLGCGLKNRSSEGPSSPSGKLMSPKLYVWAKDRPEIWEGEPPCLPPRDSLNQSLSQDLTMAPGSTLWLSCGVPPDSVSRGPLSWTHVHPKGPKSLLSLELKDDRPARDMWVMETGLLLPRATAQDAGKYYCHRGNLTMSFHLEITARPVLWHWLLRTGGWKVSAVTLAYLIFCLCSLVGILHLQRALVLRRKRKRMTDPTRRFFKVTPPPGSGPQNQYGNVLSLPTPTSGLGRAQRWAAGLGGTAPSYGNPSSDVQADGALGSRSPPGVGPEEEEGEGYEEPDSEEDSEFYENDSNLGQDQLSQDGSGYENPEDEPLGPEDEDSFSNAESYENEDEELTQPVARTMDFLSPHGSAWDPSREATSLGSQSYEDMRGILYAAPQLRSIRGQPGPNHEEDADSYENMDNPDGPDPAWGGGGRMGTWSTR
# assayMethodText: cell-based or functional assay
# EC50 of cytotoxicity (LDH), sCAR-T cells + switch vs CD19+ RS4;11, assay DTR-5-15 (PBMC) per record follows
Please state the figure in pM; there is no need to write the unit.

Previously resolved entries follow.
>  <binder>
hFMCL2-LCNT/hFMCH4b (Fab, V domains shown) VH: QVQLQESGPGLVKPSETLSVTCTVSGVSLPDYGVSWIRQPPGKGLEWLGVIWGSETTYYNPSLKSRLTISKDNSKNQVSLKMSSLTAADTAVYYCAKHYYYGGSYAMDYWGQGTLVTVSS VL: DIQMTQSPSSLSASVGDRVTITCRASQDISKYLNWYQQKPGKAPKLLIYHTSRLHSGVPSRFSGSGSGTDYTLTISSLQPEDFATYYCQQGATLPYTFGQGTKLEIK

>  <scaleUnit>
pM

>  <numericReadout>
21.4

$$$$
>  <binder>
hFMCL2/H3 WT (antibody, V domains shown) VH: QVQLQESGPGLVKPSETLSVTCTVSGVSLPDYGVSWIRQPPGKGLEWLGVIWGSETTYYNPSLKSRLTISKDNSKNQVSLKMSSLTAADTAVYYCARHYYYGGSYAMDYWGQGTLVTVSS VL: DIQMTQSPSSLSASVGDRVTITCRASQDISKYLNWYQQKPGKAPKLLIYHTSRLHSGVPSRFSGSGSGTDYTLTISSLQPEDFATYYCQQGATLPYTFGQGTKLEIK

>  <scaleUnit>
pM

>  <numericReadout>
139

$$$$

Next:
**Q:** Which EC50 of cytotoxicity (LDH), sCAR-T cells + switch vs CD19+ RS4;11, assay DTR-5-15 (PBMC) value is on record for hFMCL2b-LCNT/hFMCH4c (Fab, V domains shown) VH: QVQLQESGPGLVKPSETLSVTCTVSGVSLPDYGVSWIRQPPGKGLEWLGVIWGSETTYYNSALKSRLTISKDNSKNQVSLKMSSLTAADTAVYYCAKHYYYGGSYAMDYWGQGTLVTVSS VL: DIQMTQSPSSLSASVGDRVTITCRASQDISKYLNWYQQKPGKAVKLLIYHTSRLHSGVPSRFSGSGSGTDYTLTISSLQPEDFATYFCQQGATLPYTFGQGTKLEIK ?
**A:** 4.57
